Assignment: determine reported IC50 for the given compounds.
# target: human P2X3 receptor (Homo sapiens, UniProt P56373)
# Sequence (P56373 whole entry): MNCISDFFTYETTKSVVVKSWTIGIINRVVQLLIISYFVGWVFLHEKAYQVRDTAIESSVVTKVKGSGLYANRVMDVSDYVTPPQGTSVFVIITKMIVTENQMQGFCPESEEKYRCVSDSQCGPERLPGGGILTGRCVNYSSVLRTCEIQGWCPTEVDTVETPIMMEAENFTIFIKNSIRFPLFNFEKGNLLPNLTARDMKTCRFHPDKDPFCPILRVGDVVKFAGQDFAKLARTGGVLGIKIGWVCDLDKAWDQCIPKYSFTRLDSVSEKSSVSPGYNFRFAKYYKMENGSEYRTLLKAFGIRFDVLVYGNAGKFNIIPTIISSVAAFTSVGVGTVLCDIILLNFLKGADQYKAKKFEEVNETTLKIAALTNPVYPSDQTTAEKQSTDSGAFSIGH
# measurementDescription: Intracellular calcium measurement to assess antagonist activity at human P2X3 receptors (hP2X3 CHO), photina luminescence
# Format: cell-based
# Parameters: expressed in transfected cells; host or cells: Chinese hamster ovary (CHO) cells
# cond: column 2), CHO cells, agonist α,β-methylene-ATP at EC50
All answers are understood in nM, so give the number only.

Observed IC50 on human P2X3 receptor (Homo sapiens, UniProt P56373), entry CC(C)N1Cc2c(n(CC(=O)Nc3ccc(F)cn3)c3cc([C@@H]4CCOC4)nn3c2=O)C1=O (single isomer, unassigned) [Example 280] , equals 57

Bench note, human P2X3 receptor (Homo sapiens, UniProt P56373): entry CCc1cc2n(CC(=O)Nc3ccc(F)cn3)c3c(c(=O)n2n1)CN(C1CCN(S(C)(=O)=O)C1)C3=O (stereo not shown) [Example 272] , its IC50 = 433

Test item CCc1cc2n(CC(=O)Nc3ccc(F)cn3)c3c(c(=O)n2n1)CN(CC(=O)N(C)C1CC1)C3=O [Example 294] ; human P2X3 receptor (Homo sapiens, UniProt P56373); reported IC50 was 247

Readout IC50 for CCOC(=O)c1cc2n(CC(=O)Nc3ccc(F)cn3)c3c(c(=O)n2n1)CN(C1CCOCC1)C3=O [Example 122] , test system human P2X3 receptor (Homo sapiens, UniProt P56373), was 94

Ref: patent US11319324B2
